Consider the following compounds; for each one, report its pest or weed control at 62.5 g/ha.
# Test system: ivy-leaved morning glory (Ipomoea hederacea)
# method.summary: Test G Post-Emergence Protocol
# Type: in vivo
# condition.label: Ipomoea, post-emergence, 312 h, 62.5 g ai/ha, evaluated after 13 days, read-out: Morningglory, Ivy-leaved damage rating (100=total damage to plant; 0=no damage to plant)
Quick note: give the figure in %, leave out the unit.

Exam item: What value of pest or weed control at 62.5 g/ha has been reported for the following compound? CN1C[C@@H](c2ccc(C(F)(F)F)cc2)[C@H](C(=O)Nc2cc(F)nc(F)c2)C1=O (racemic)
Marked response: 0

Exam item: What value of pest or weed control at 62.5 g/ha has been reported for the following compound? CN1C[C@@H](c2ccc(C(F)(F)F)cc2)[C@H](C(=O)Nc2ccc(Cl)nn2)C1=O (racemic)
Marked response: 10

Exam item: What value of pest or weed control at 62.5 g/ha has been reported for the following compound? Cc1cccc(NC(=O)[C@@H]2C(=O)N(C)C[C@H]2c2ccc(C(F)(F)F)cc2)c1[N+](=O)[O-] (racemic)
Marked response: 0

Exam item: What value of pest or weed control at 62.5 g/ha has been reported for the following compound? Cc1cc(Cl)ccc1NC(=O)[C@H]1C(=O)N(C)C[C@@H]1c1ccc(C(F)(F)F)cc1 (racemic)
Marked response: 0

###

# Test system: Kochia (Kochia scoparia)
# method.summary: Test A preemergence
# Assay type: in vivo
# condition.label: Bassia scoparia, pre-emergence, 240 h, 500 g ai/ha, preemergence; visual injury rating about 10 d after treatment, 0 to 100 scale (0 no effect, 100 complete control); read-out: Kochia plant response rating
I'd appreciate it if you marked entries T when pest or weed control at 500 g/ha is lower than 70% and F when it is not.

Exam item: Determine if CN1C[C@H](c2cc(F)cc(F)c2)[C@@H](C(=O)Nc2ncccc2Cl)C1=O [Compound 1097] shows pest or weed control at 500 g/ha strictly lower than 70%.
Marked response: T

Exam item: Determine if CC(C)COc1cccc([C@H]2CNC(=O)[C@@H]2C(=O)Nc2ccccc2F)c1 [Compound 964] shows pest or weed control at 500 g/ha strictly lower than 70%.
Marked response: T

Exam item: Determine if Cc1cc([C@H]2CNC(=O)[C@@H]2C(=O)Nc2cccc(F)c2F)ccc1C(F)(F)F [Compound 1040] shows pest or weed control at 500 g/ha strictly lower than 70%.
Marked response: F

Exam item: Determine if Cc1cccc(NC(=O)[C@H]2C(=O)N(C)C[C@@H]2c2ccc(C(F)(F)F)cc2)c1F [Compound 939] shows pest or weed control at 500 g/ha strictly lower than 70%.
Marked response: T

Exam item: Determine if O=C1NC[C@H](c2ccc3c(c2)OCO3)[C@H]1C(=O)Nc1ccc(F)cc1F [Compound 1026] shows pest or weed control at 500 g/ha strictly lower than 70%.
Marked response: F

Exam item: Determine if Cc1cccc(NC(=O)[C@H]2C(=O)N(C)C[C@@H]2c2ccc(C(F)(F)F)cc2)c1C [Compound 941] shows pest or weed control at 500 g/ha strictly lower than 70%.
Marked response: T

###

Consider the following molecules; for each one, report its Plant response rating (scale of 0 to 100), Velvetleaf.
# Test system: velvetleaf (Abutilon theophrasti)
# method.summary: Test C preemergence
# Type: in vivo
# condition.label: 31 g ai/ha, 0 is no effect, 100 is complete control
Give the value as a plain number.

Exam item: Form: Entry = O=C1NCC(c2cc(F)cc(Cl)c2)C1C(=O)Nc1cccc(F)c1F (stereo not drawn) [Compound 492] | System = velvetleaf (Abutilon theophrasti) | Plant response rating (scale of 0 to 100), Velvetleaf = ____
Marked response: 0

Exam item: Form: Entry = Cc1ccc(C2CN(C)C(=O)C2C(=O)Nc2cccc(F)c2F)cc1 (stereo not drawn) [Compound 662] | System = velvetleaf (Abutilon theophrasti) | Plant response rating (scale of 0 to 100), Velvetleaf = ____
Marked response: 35

Exam item: Form: Entry = CN1CC(c2cccc(C(F)(F)F)c2)C(C(=O)Nc2cccc(F)c2F)C1=O (stereo not drawn) [Compound 636] | System = velvetleaf (Abutilon theophrasti) | Plant response rating (scale of 0 to 100), Velvetleaf = ____
Marked response: 5

Exam item: Form: Entry = CN1C[C@H](c2ccc(C(F)(F)F)cc2)[C@@H](C(=O)Nc2ccccc2F)C1=O [Compound 622] | System = velvetleaf (Abutilon theophrasti) | Plant response rating (scale of 0 to 100), Velvetleaf = ____
Marked response: 0

Exam item: Form: Entry = CN1C[C@H](c2ccc(F)c(F)c2)[C@@H](C(=O)Nc2cccc(F)c2F)C1=O [Compound 639] | System = velvetleaf (Abutilon theophrasti) | Plant response rating (scale of 0 to 100), Velvetleaf = ____
Marked response: 0

Exam item: Form: Entry = CN1CC(c2ccc(C(C)(F)F)cc2)C(C(=O)Nc2ccccc2F)C1=O (stereo not drawn) [Compound 691] | System = velvetleaf (Abutilon theophrasti) | Plant response rating (scale of 0 to 100), Velvetleaf = ____
Marked response: 25

The measurements presented in this section are drawn from patent US12077503B2.
